These measurements were taken from ChEMBL document CHEMBL1201862.

Tested on: H9c2;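 further: cell death induced by hydrogen peroxide oxidative stress; compound pretreatment for 60 min then peroxide exposure for 2 h; potency is for protecting the cells against peroxide damage rather than for killing them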;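 further: confirmatory concentration-response retest of ultra-high-throughput screening hits for modulation of myocardial damage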
assay text: cells
Type: functional, cell-based
condition details: Rattus norvegicus, H9c2, Myocardium
Active and inactive are the calls of the source. No stated cut-off is given here; in the data, active = IC50 of 30 µM or less and inactive = more.
Hello, when you answer, please use one of the following outcomes: Y = active, N = inactive

These recorded examples may help you get a feel for the data.
{"smiles data": "O=C(c1cc(O)nc2ccccc12)N1CCN(S(=O)(=O)c2ccc(Cl)cc2)CC1", "category label": "Y"}
{"smiles data": "COC(=O)c1cccc(S(=O)(=O)N(Cc2ccco2)Cc2cc3cc(OC)ccc3nc2O)c1", "category label": "N"}
{"smiles data": "O=C(CCc1nc(O)c2ccccc2n1)N1CCCc2ccccc21", "category label": "N"}

INPUT: Fill in: this test's call for O=C(Cn1[nH]c(=O)c2ccccc2c1=O)NNC(=O)c1ccccc1 is ___
OUTPUT: Y
